Measured pIC50, listed per entry for reference.
Study target: KSP (Homo sapiens)
Procedure summary: KSP inhibitory activity, end-point assay
Type: biochemical
Condition parameters: KSP inhibitory activity based on end-point assay; read-out: IC50 Rating
pIC50: −log10 of the molar value.

- Molecule: "CC(C)(C)C1CCc2nc3c(CCCCO)c(C(N)=O)[nH]c3cc2C1 (stereo not drawn)"
  Observed measurement: "6.00 to 7.00"

Prompt: Recall and state the measured pIC50 for C[C@@H](CO)NC(=O)c1cc2nc3c(cc2[nH]1)CC(C(C)(C)C)CC3 (stereo partly drawn) .
Completion: 5.00 to 6.00

Prompt: Recall and state the measured pIC50 for CC(C)(C)C1CCc2nc3c(-c4cccc(C#N)c4)c(C(N)=O)[nH]c3cc2C1 (stereo not drawn) .
Completion: < 5.00

Prompt: Recall and state the measured pIC50 for CC(C)(C)C1CCc2nc3cc(C(=O)N[C@H](CO)Cc4ccccc4)[nH]c3cc2C1 (stereo partly drawn) .
Completion: < 5.00

Prompt: Recall and state the measured pIC50 for CC(C)(C)C1CCc2nc3c(CCCN)c(C(N)=O)[nH]c3cc2C1 (stereo not drawn) .
Completion: < 5.00

Prompt: Recall and state the measured pIC50 for CC(C)(C)C1CCc2nc3c(C(=O)NCCN)c[nH]c3cc2C1 (stereo not drawn) .
Completion: < 5.00

Prompt: Recall and state the measured pIC50 for CC(C)(C)C1CCc2nc3c(-c4cccc(O)c4)c(C(N)=O)[nH]c3cc2C1 (stereo not drawn) .
Completion: 5.00 to 6.00

Prompt: Recall and state the measured pIC50 for Cc1[nH]c2cc3c(nc2c1CCO)CCC(C(C)(C)C)C3 (stereo not drawn) .
Completion: < 5.00

Prompt: Recall and state the measured pIC50 for CCOC(=O)c1cc(NC(=O)c2cc3nc4c(cc3[nH]2)CC(C(C)(C)C)CC4)c[nH]1 (stereo not drawn) .
Completion: < 5.00

Prompt: Recall and state the measured pIC50 for CC(C)(C)C1CCc2nc3cc(C(=O)NCc4ccccn4)[nH]c3cc2C1 (stereo not drawn) .
Completion: < 5.00

Prompt: Recall and state the measured pIC50 for CCOC(=O)c1cc2nc3c(cc2n1C(C)=O)CC(C(C)(C)C)CC3 (stereo not drawn) .
Completion: < 5.00

---

Study target: UniProt P52732
Procedure summary: KSP inhibitory activity, end-point assay
Format: biochemical
Condition parameters: KSP inhibitory activity based on end-point assay; read-out: IC50 Rating
pIC50: −log10 of the molar value.
Reported property: pIC50

The following molecules have reported results that may help.
- Molecule: "CC(C)(C)C1CCc2nc3cc(C(=O)N[C@H](CN)c4cccc(N)c4)[nH]c3cc2C1 (stereo partly drawn) [Example 123]"
  Observed measurement: "> 7.00"
- Molecule: "CC(O)c1cc2nc3c(cc2[nH]1)CC(C(C)(C)C)CC3 (stereo not drawn) [Example 29]"
  Observed measurement: "6.00 to 7.00"
- Molecule: "CC(C)(C)C1CCc2nc3cc(C(=O)NNCCC#N)[nH]c3cc2C1 (stereo not drawn) [Example 99]"
  Observed measurement: "< 5.00"
- Molecule: "CC(=O)c1cc2nc3c(cc2[nH]1)CC(C(C)(C)C)CC3 (stereo not drawn) [Example 30]"
  Observed measurement: "6.00 to 7.00"
- Molecule: "CC(C)(C)[C@@H]1CCc2nc3cc(C(=O)Nc4ccc(O)cc4)[nH]c3cc2C1 [Example 103A]"
  Observed measurement: "6.00 to 7.00"

Prompt: Give reported pIC50 for CC(C)(C)C1CCc2nc3c(C#CCCO)c(C(N)=O)[nH]c3cc2C1 (stereo not drawn) [Example 56] (UniProt P52732)
Completion: < 5.00

Prompt: Give reported pIC50 for CC(C)(C)C1CCc2nc3c(CC(N)=O)c(O)[nH]c3cc2C1 (stereo not drawn) [Example 85] (UniProt P52732)
Completion: < 5.00

Prompt: Give reported pIC50 for CC(C)(C)[C@H]1CCc2nc3cc(C(=O)Nc4ccc(O)cc4)[nH]c3cc2C1 [Example 103B] (UniProt P52732)
Completion: < 5.00

Prompt: Give reported pIC50 for C[C@@H](CO)NC(=O)c1c[nH]c2cc3c(nc12)CCC(C(C)(C)C)C3 (stereo partly drawn) [Example 76] (UniProt P52732)
Completion: < 5.00

Prompt: Give reported pIC50 for CC(C)(C)C1CCc2nc3cc(COC(=O)c4ccccc4)[nH]c3cc2C1 (stereo not drawn) [Example 32] (UniProt P52732)
Completion: < 5.00

---

Study target: KSP (Homo sapiens, UniProt P52732)
Sequence (P52732 whole entry): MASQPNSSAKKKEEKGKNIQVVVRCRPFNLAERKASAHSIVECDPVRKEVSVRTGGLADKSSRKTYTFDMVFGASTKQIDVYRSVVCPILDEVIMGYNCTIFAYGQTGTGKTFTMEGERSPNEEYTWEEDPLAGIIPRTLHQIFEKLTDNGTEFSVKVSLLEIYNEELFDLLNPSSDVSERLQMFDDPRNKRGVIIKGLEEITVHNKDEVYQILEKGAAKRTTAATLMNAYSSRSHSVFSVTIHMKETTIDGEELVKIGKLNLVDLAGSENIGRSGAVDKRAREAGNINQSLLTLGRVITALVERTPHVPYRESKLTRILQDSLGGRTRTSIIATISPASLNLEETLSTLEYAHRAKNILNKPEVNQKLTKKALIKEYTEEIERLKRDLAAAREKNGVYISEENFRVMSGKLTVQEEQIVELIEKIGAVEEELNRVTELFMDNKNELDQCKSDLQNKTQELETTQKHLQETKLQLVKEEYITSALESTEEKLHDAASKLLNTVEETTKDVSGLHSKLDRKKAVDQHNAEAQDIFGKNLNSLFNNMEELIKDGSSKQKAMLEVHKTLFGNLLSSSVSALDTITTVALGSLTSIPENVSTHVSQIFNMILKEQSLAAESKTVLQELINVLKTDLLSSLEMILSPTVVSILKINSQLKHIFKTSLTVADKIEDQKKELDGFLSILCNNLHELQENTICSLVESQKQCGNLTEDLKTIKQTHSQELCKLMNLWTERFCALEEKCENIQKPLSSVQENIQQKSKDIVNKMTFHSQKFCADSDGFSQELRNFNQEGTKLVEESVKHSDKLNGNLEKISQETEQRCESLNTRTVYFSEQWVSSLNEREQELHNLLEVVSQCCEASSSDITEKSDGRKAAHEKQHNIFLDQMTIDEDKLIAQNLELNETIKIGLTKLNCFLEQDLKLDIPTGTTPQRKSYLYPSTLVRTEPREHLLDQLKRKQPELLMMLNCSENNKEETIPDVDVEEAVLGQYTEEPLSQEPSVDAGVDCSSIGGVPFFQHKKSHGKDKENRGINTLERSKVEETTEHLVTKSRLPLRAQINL
Procedure summary: KSP inhibitory activity, end-point assay
Type: biochemical
Condition parameters: KSP inhibitory activity based on end-point assay; read-out: IC50 Rating
pIC50: −log10 of the molar value.
Measured pIC50, listed per entry for reference.

The following compounds have reported results that may help.
- Compound: "CNC(=O)c1cc2nc3c(cc2[nH]1)C[C@@H](C(C)(C)C)CC3 (single isomer, unassigned) [Example 22B]"
  pIC50: "6.00 to 7.00"
- Compound: "CC(C)(C)C1CCc2nc3cc(C(=O)NCCCN)[nH]c3cc2C1 (centres unmarked) [Example 8]"
  pIC50: "5.00 to 6.00"
- Compound: "CC(C)(C)C1CCc2nc3cc(C(=O)NCCCCCCO)[nH]c3cc2C1 (centres unmarked) [Example 12]"
  pIC50: "< 5.00"
- Compound: "CCOC(=O)c1c[nH]c2cc3c(nc12)CCC(C(C)(C)C)C3 (centres unmarked) [Example 70]"
  pIC50: "< 5.00"
- Compound: "CC(C)(C)C1CCc2nc3cc(C(=O)N[C@H](CN)c4cccc(NC(=O)c5ccco5)c4)[nH]c3cc2C1 (some centres unmarked) [Example 124]"
  pIC50: "> 7.00"

Prompt: Recall and state the measured pIC50 for CC(C)(C)C1CCc2nc3c(CCO)c(CO)[nH]c3cc2C1 (centres unmarked) [Example 37] .
Completion: < 5.00

Prompt: Recall and state the measured pIC50 for CC(C)(C)C1CCc2nc3cc(C(=O)N[C@H](CO)c4ccccc4)[nH]c3cc2C1 (some centres unmarked) [Example 106] .
Completion: 6.00 to 7.00

Prompt: Recall and state the measured pIC50 for CC(C)(C)C1CCc2nc3cc(C(O)c4ccccc4)[nH]c3cc2C1 (centres unmarked) [Example 109] .
Completion: < 5.00

---

Measured pIC50, listed per entry for reference.
Study target: KSP (Homo sapiens, UniProt P52732)
Procedure summary: KSP inhibitory activity, end-point assay
Format: biochemical
Condition parameters: KSP inhibitory activity based on end-point assay; read-out: IC50 Rating
pIC50: −log10 of the molar value.

The following compounds have reported results that may help.
- Compound: "CC(C)(C)C1CCc2nc3c([N+](=O)[O-])c(C(N)=O)[nH]c3cc2C1 (stereo not drawn) [Example 26]"
  Observed measurement: "< 5.00"
- Compound: "CC(C)(C)C1CCc2nc3c(CCC#N)c(C#N)[nH]c3cc2C1 (stereo not drawn) [Example 41]"
  Observed measurement: "5.00 to 6.00"

Prompt: Recall and state the measured pIC50 for CCOC(=O)c1[nH]c2cc3c(nc2c1CCCO)CCC(C(C)(C)C)C3 (stereo not drawn) [Example 49] .
Completion: < 5.00

Prompt: Recall and state the measured pIC50 for COc1ccc(C(O)c2cc3nc4c(cc3[nH]2)CC(C(C)(C)C)CC4)cc1 (stereo not drawn) [Example 111] .
Completion: < 5.00

Prompt: Recall and state the measured pIC50 for CCOC(=O)c1[nH]c2cc3c(nc2c1CC)CCC(C(C)(C)C)C3 (stereo not drawn) [Example 47] .
Completion: < 5.00

Prompt: Recall and state the measured pIC50 for CC(C)(C)C1CCc2nc3cc(C(=O)NN)[nH]c3cc2C1 (stereo not drawn) [Example 17] .
Completion: > 7.00

Prompt: Recall and state the measured pIC50 for CC(C)(C)C1CCc2nc3c(CCCCCO)c(C(N)=O)[nH]c3cc2C1 (stereo not drawn) [Example 59] .
Completion: 5.00 to 6.00

Prompt: Recall and state the measured pIC50 for CC(C)(C)C1CCc2nc3cc(C(=O)NNc4ccccn4)[nH]c3cc2C1 (stereo not drawn) [Example 101] .
Completion: 6.00 to 7.00

Prompt: Recall and state the measured pIC50 for CC(C)(C)C1CCc2nc3cc(CO)[nH]c3cc2C1 (stereo not drawn) [Example 23] .
Completion: > 7.00

Prompt: Recall and state the measured pIC50 for COc1cccc(C(O)c2cc3nc4c(cc3[nH]2)CC(C(C)(C)C)CC4)c1 (stereo not drawn) [Example 110] .
Completion: < 5.00

Prompt: Recall and state the measured pIC50 for CCOC(=O)c1[nH]c2cc3c(nc2c1NCCOC)CCC(C(C)(C)C)C3 (stereo not drawn) [Example 64] .
Completion: < 5.00

Prompt: Recall and state the measured pIC50 for CC(C)(C)C1CCc2nc3cc(C(=O)NCc4ccccc4)[nH]c3cc2C1 (stereo not drawn) [Example 18] .
Completion: < 5.00

Prompt: Recall and state the measured pIC50 for CC(C)(C)C1CCc2nc3cc(C(O)c4cccc(Cl)c4)[nH]c3cc2C1 (stereo not drawn) [Example 112] .
Completion: < 5.00

Prompt: Recall and state the measured pIC50 for COCc1cc2nc3c(cc2[nH]1)CC(C(C)(C)C)CC3 (stereo not drawn) [Example 87] .
Completion: 6.00 to 7.00

Prompt: Recall and state the measured pIC50 for CCOC(=O)c1[nH]c2cc3c(nc2c1NCCO)CCC(C(C)(C)C)C3 (stereo not drawn) [Example 65] .
Completion: < 5.00
